Consider the following IC50 values measured on wild-type HIV-1 protease (Human immunodeficiency virus type 1 group M subtype B).
# do not omit the unit; it follows the number

Cc1n[nH]cc1-c1ncc2c(n1)CN(C(=O)c1cc(CN3C(=N)N[C@](CCCC(F)(F)F)(c4ccc(F)cc4)C3=O)ccc1C(F)(F)F)C2 [Compound 27] = 0.00288 µM

Here are 8 compounds. What values of IC50 were reported for them?
1. CC(C)CCC1(c2ccccc2)NC(=N)N(Cc2ccc(C(F)(F)F)c(C(=O)N3CCC(F)(F)C3)c2)C1=O (stereo not drawn) [Compound 162]
2. N=C1NC(c2ccc(F)cc2)(c2ccc(F)cc2)C(=O)N1Cc1cccc(C(=O)N2Cc3ccc(F)cc3C2)c1 [Compound 232]
3. CC(C)CC1(c2ccccc2)NC(=N)N(Cc2cccc(C(=O)N3CCN(c4ccccc4)CC3)c2)C1=O (stereo not drawn) [Compound 342]
4. N=C1N[C@](CCCC(F)(F)F)(c2ccc(F)cc2)C(=O)N1Cc1ccc(C(F)(F)F)c(C(=O)N2Cc3cnc(C(F)(F)F)nc3C2)c1 [Compound 73]
5. COC(=O)Nc1ncc2c(n1)CN(C(=O)c1cccc(CN3C(=N)NC(c4ccc(F)cc4)(c4ccc(F)cc4)C3=O)c1)C2 [Compound 189]
6. COc1nnc2n1CCN(C(=O)c1cccc(CN3C(=N)NC(c4ccccc4)(c4ccccc4)C3=O)c1)C2 [Compound 340]
7. N=C1NC(c2ccccc2)(c2ccccc2)C(=O)N1Cc1cccc(C(=O)N2Cc3cccc(F)c3C2)c1 [Compound 194]
8. N=C1NC(c2ccccc2)(c2ccccc2)C(=O)N1Cc1ccc(Cl)c(C(=O)N2Cc3cncnc3C2)c1 [Compound 374]

Ans.
1. 0.0322 µM
2. 0.0135 µM
3. 0.0788 µM
4. 0.00929 µM
5. 0.00383 µM
6. 0.0764 µM
7. 0.0357 µM
8. 0.00702 µM
